- Tested on: LEGO organoid PTCC (PTEN-/-; TP53-/-; CDKN2A-/-; CDKN2B-/-)
- Run Description: bioluminescence (viable cell) signal fold change after vs before treatment, normalised to DMSO (ratio); higher = more tumour cell growth / less inhibition
- Experimental Parameters: 10 µM; treatment time 6 days
# key: entry, value: bioluminescence
Just the number, please.

Worked cases, bioluminescence given:
> print(dat)
                                   compound  measured.metric  reported
1  Cc1nc2n(c(=O)c1CCN1CCC(c3noc4cc(F)ccc34)CC1)CCCC2O (configuration not stated) [Paliperidone]  bioluminescence     0.722
2  CC(C)Oc1ccc(-c2nc(-c3cccc4c3CC[C@@H]4NCCO)no2)cc1C#N [Ozanimod]  bioluminescence     0.828
3  CS(=O)(=O)c1cccc(C[C@H](NC(=O)c2c(Cl)cc3c(c2Cl)CCN(C(=O)c2ccc4ccoc4c2)C3)C(=O)O)c1 [Lifitegrast]  bioluminescence      1.08
4  CN(CCOc1ccc(CC2SC(=O)NC2=O)cc1)c1ccccn1 (configuration not stated) [Rosiglitazone]  bioluminescence      1.87

Sample C[C@]12C=CC(=O)C=C1CC[C@@H]1[C@@H]2[C@@H](O)C[C@@]2(C)[C@H]1CC[C@]2(O)C(=O)CO [Prednisolone] ; bioluminescence observed: 1.29

Sample N#Cc1ccc2[nH]cc(CCCCN3CCN(c4ccc5oc(C(N)=O)cc5c4)CC3)c2c1 [Vilazodone] ; bioluminescence observed: 1.83

bioluminescence measured on CCc1cc(/C(C)=N/OCc2ccc(C3CCCCC3)c(C(F)(F)F)c2)ccc1CN1CC(C(=O)O)C1 [Siponimod] = 2.91

The compound identified as CN1C(=O)OC(C)(C)C1=O [Trimethadione] registered its bioluminescence at 1.38

Measured bioluminescence, COc1ccccc1OCC(O)COC(N)=O (configuration not stated) [Methocarbamol] : 1.84

Noted for NC(=O)c1cnccn1 [Pyrazinamide] : its bioluminescence reads 1.24

Looking up OCCN1CCN(CCCN2c3ccccc3Sc3ccc(Cl)cc32)CC1 [Perphenazine] , I found its bioluminescence recorded as 0.615

Entry CN(C/C=C/C#CC(C)(C)C)Cc1cccc2ccccc12 [Terbinafine] — recorded bioluminescence = 1.04

Query CN1[C@@H]2CCC[C@H]1C[C@@H](NC(=O)c1nn(C)c3ccccc13)C2.Cl [Granisetron hydrochloride] yields bioluminescence of 0.701

Per the records, this compound ( CN1[C@@H]2CC[C@H]1C[C@@H](OC(c1ccccc1)c1ccccc1)C2.CS(=O)(=O)O [Benztropine mesylate] ) has bioluminescence equal to 0.793

response.value for COc1cc(Nc2ncc(F)c(Nc3ccc4c(n3)N(COP(=O)(O)O)C(=O)C(C)(C)O4)n2)cc(OC)c1OC [Fostamatinib] (field: bioluminescence) = 0.182

Just so you know, measured bioluminescence for Nc1nnc(-c2cccc(Cl)c2Cl)c(N)n1 [Lamotrigine] came out at 2.24

Record Cc1cc(C)nc(NS(=O)(=O)c2ccc(N)cc2)n1 [Sulfamethazine] . Reported bioluminescence: 0.645
